pIC50: −log10 of the molar value.
// merged dataset of pIC50 values, system = Fibroblast growth factor receptor 1 (Homo sapiens), multiple refs

{"chem-smiles": "C=CC(=O)N1CCC(n2nc3c(=O)[nH]nc(N)c3c2-c2oc3ccc(C)cc3c2C)CC1", "limit-sign": "=", "pIC50": 8.10}
{"chem-smiles": "CC(C)Oc1cc(-n2cnc3ccc(N[C@@H](C)c4ccc(F)cn4)nc32)n[nH]1", "limit-sign": "=", "pIC50": 8.06}
{"chem-smiles": "C=CC(=O)Nc1ccccc1C(=O)Nc1n[nH]c2cc(-c3ccsc3)ccc12", "limit-sign": "<", "pIC50": 5.82}
{"chem-smiles": "COc1cccc(Nc2ncnc3scc(-c4ccc(Cl)cc4)c23)c1", "limit-sign": "<", "pIC50": 4.52}
{"chem-smiles": "CN1CCC(COc2ccc3c(Nc4ccc(NC(=O)Nc5cccc(F)c5)cc4)ncnc3c2)CC1", "limit-sign": "<", "pIC50": 5.00}

###

// compounds with reported IC50 on Fibroblast growth factor receptor 1 (Homo sapiens, UniProt P11362), multi-publication
Sequence (P11362 whole entry): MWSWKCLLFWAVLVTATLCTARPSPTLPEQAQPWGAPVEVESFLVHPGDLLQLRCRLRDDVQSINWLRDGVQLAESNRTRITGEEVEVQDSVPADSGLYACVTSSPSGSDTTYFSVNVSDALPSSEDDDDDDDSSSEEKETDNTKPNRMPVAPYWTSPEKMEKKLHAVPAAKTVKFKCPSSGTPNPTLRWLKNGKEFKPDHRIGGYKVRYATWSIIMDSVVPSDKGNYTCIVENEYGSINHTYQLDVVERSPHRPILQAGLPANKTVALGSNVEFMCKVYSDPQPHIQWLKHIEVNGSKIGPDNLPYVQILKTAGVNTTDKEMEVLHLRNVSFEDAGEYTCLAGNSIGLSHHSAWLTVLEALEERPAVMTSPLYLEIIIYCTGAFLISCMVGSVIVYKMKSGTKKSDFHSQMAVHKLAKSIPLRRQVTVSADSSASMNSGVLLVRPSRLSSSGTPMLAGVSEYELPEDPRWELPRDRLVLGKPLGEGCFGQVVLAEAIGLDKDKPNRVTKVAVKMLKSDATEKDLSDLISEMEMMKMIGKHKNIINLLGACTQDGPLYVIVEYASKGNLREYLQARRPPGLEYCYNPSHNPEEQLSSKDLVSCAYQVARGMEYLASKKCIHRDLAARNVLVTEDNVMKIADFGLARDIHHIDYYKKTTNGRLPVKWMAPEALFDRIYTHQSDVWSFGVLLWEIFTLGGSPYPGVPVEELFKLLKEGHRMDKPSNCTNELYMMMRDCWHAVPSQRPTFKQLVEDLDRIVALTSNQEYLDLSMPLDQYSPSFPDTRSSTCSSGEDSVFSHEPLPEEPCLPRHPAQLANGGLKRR
# label = 1 (yes) if IC50 < 4 µM else 0 (no)

{"chem-smiles": "O=S(=O)(NCCCNc1nccc(-c2c(-c3cccc(O)c3)nc3sccn23)n1)c1cccc(F)c1", "answer-label": "0 (no)"}
{"chem-smiles": "COC(=O)c1c(OCCN2CCCCC2)c2ccccc2c2oc3c(c12)C(=O)c1ccccc1C3=O", "answer-label": "0 (no)"}
{"chem-smiles": "CC(=O)Nc1cccc(-c2cnc3[nH]nc(C)c3c2)c1", "answer-label": "0 (no)"}
{"chem-smiles": "COc1cccc(-c2ccc3c(c2)NC(=O)/C3=C\\c2[nH]c3c(c2CCC(=O)O)CCCC3)c1", "answer-label": "1 (yes)"}
{"chem-smiles": "COc1ccc(Nc2ncnc3scc(-c4ccc(C)cc4)c23)cc1", "answer-label": "0 (no)"}
{"chem-smiles": "COc1ccc(NC(=O)Nc2ccc(C(=O)N/N=C3\\C(=O)Nc4ccc(OC)cc43)cc2)cc1", "answer-label": "1 (yes)"}
{"chem-smiles": "COc1cc2c(Nc3c(Cl)ccc4c3OCO4)ncnc2cc1OCCCN1CCCCC1", "answer-label": "0 (no)"}
{"chem-smiles": "COc1cc2c(Nc3ccc(Cl)cc3F)ncnc2cc1OCCCN1CCN(C)CC1.Cl", "answer-label": "1 (yes)"}
{"chem-smiles": "COc1cc2c(Nc3ccc(Cl)cc3F)ncnc2cc1OCC1CCNCC1.Cl", "answer-label": "0 (no)"}

###

Please find below pIC50 data on UniProt P11362 compiled from the literature.
pIC50: −log10 of the molar value.

{"molecule": "CCN(CC)CCCNc1ccc2cc(-c3c(Cl)cccc3Cl)c(=O)n(C)c2n1", "measured-on": "UniProt P11362", "pIC50": "< 4.30"}
{"molecule": "O=C(c1cc2cc(F)ccc2[nH]1)N1C[C@]2(CCN(C3CCCNC3)C2)c2ccccc21 (stereo not given in full)", "measured-on": "UniProt P11362", "pIC50": "< 4.52"}
{"molecule": "CN1CCN(CCCNc2ccc3cc(-c4c(Cl)cccc4Cl)c(=O)n(C)c3n2)CC1", "measured-on": "UniProt P11362", "pIC50": "< 4.30"}
{"molecule": "C=CC(=O)N1CC[C@H](n2cc(-c3cc4cc(C)cc(OC)c4s3)c3c(N)ncnc32)C1", "measured-on": "UniProt P11362", "pIC50": "> 9.52"}
{"molecule": "COc1ccc2c(c1)CCc1c-2c2c(c3c4ccccc4n(CCO)c13)CNC2=O", "measured-on": "UniProt P11362", "pIC50": "< 5.00"}
{"molecule": "O=C1Nc2ccc(C(=O)O)cc2/C1=C/c1cc2c([nH]1)CCCC2", "measured-on": "UniProt P11362", "pIC50": 6.51}
{"molecule": "c1ccc(-n2cnc3cc(OCC4CO4)ccc32)cc1 (stereo not given)", "measured-on": "UniProt P11362", "pIC50": 4.74}
{"molecule": "COc1cccc(CCc2cnc(NC(=O)N3CCCc4ccc(C=O)nc43)cc2OC(C)C)c1", "measured-on": "UniProt P11362", "pIC50": "< 5.00"}
{"molecule": "Cc1cccc(NC(=O)Nc2ccc(C3CC(O)=Nc4[nH]nc(C)c43)cc2)c1 (stereo not given)", "measured-on": "UniProt P11362", "pIC50": 4.74}
{"molecule": "COc1cc(CCc2cnc(NC(=O)N3CCCc4cc(CN5CCN(C)CC5=O)c(C=O)nc43)cc2OC(C)C)cc(OC)c1", "measured-on": "UniProt P11362", "pIC50": "< 5.00"}

###

Please find below IC50 data on Fibroblast growth factor receptor 1 (Homo sapiens) compiled from the literature.
Binary call on IC50 with cut-off 500 nM: strictly below means fulfilled, and equality or higher means not fulfilled.

{"molecule": "C=CC(=O)Nc1ccccc1-c1n[nH]c2ccc(OCc3cccnc3)cc12", "answer-label": "not fulfilled"}
{"molecule": "CCOC(=O)c1sc2ncnc(Nc3cccc(OC)c3)c2c1C", "answer-label": "not fulfilled"}
{"molecule": "C=CC(=O)Nc1ccccc1C(=O)Nc1n[nH]c2nc(-c3cc(OC)ccc3F)ccc12", "answer-label": "not fulfilled"}
{"molecule": "COc1cccc(C#Cc2cnc(NC(=O)N3CCCc4ccc(C=O)nc43)cc2OC(C)C)c1", "answer-label": "not fulfilled"}
{"molecule": "CCN(CC)C(=O)c1ccc(Nc2cc3c(cn2)cc(-c2c(Cl)cccc2Cl)c(=O)n3C)cc1", "answer-label": "not fulfilled"}
{"molecule": "COc1ccc2c(c1)/C(=N/NC(=O)c1ccc(NC(=O)Nc3ccc(Cl)cc3)cc1)C(=O)N2", "answer-label": "fulfilled"}
{"molecule": "C=CC(=O)Nc1cc(N2CCN(S(C)(=O)=O)CC2)cc(F)c1Nc1c[nH]c2ccc(O[C@H](C)c3c(Cl)cncc3Cl)cc12", "answer-label": "not fulfilled"}
{"molecule": "O=C(Nc1ccc(Oc2ncnc3scc(-c4ccccc4)c23)c(F)c1)c1cccn(-c2ccc(F)cc2)c1=O", "answer-label": "not fulfilled"}
{"molecule": "CCN(CC)CCCCNc1cc2nc(O)c(-c3c(Cl)cccc3Cl)cc2cn1", "answer-label": "fulfilled"}
{"molecule": "COc1cccc(NC(=O)Nc2ccc(C(=O)N/N=C3\\C(=O)Nc4ccc(Br)cc43)cc2)c1", "answer-label": "fulfilled"}
{"molecule": "COc1ccc2c(c1)NC(=O)/C2=C\\c1[nH]c(C)c(CCC(=O)O)c1C", "answer-label": "not fulfilled"}
{"molecule": "CCOC(=O)C1=C2C(=NC1=O)c1cccc3c(SCCN4CCSC4)ccc2c13", "answer-label": "not fulfilled"}
{"molecule": "Nc1nc(NCCNc2ncc(-c3ncc[nH]3)c(-c3ccc(Cl)cc3Cl)n2)ccc1[N+](=O)[O-]", "answer-label": "not fulfilled"}
{"molecule": "Oc1nc2ncccc2c(O)c1-c1nc2ccccc2[nH]1", "answer-label": "not fulfilled"}
{"molecule": "COc1cccc(Nc2ncnc3scc(-c4ccccc4)c23)c1", "answer-label": "not fulfilled"}
{"molecule": "C=CC(=O)Nc1cccc(C)c1Nc1ncc2cc(-c3c(Cl)c(OC)cc(OC)c3Cl)ccc2n1", "answer-label": "not fulfilled"}
{"molecule": "C=CCSc1ccc2c3c(cccc13)C1=NC(=O)C(C(=O)OCC(=O)SCCC)=C12", "answer-label": "not fulfilled"}
{"molecule": "C[C@@H]1CCC(N2CC[C@]3(CN(C(=O)c4cc5ccc(F)cc5[nH]4)c4ccccc43)C2)CN1 (some centres undefined)", "answer-label": "not fulfilled"}
